biological target: G-protein coupled receptor 55 (Homo sapiens); experiment: GPR55 antagonists blocking LPI-driven arrestin recruitment, primary screen, imaging, U2OS, beta-arrestin-GFP, LPI agonist (AID 2013); details: U2OS GPR55 beta-arrestin-GFP translocation imaging, LPI antagonism; at 10 µM;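 also: U2OS cells stably carrying GPR55 and arrestin-GFP stimulated by 5 µM LPI near EC80; imaged beta-arrestin-GFP aggregate spots per cell after agonist stimulation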
The campaign covered roughly 290,000 compounds. About 370 (0.13%) were called active.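 The calls were made as follows: active = spots per cell inhibited over 60%, with over 100 cells counted and total cytoplasm intensity under 500,000; inconclusive = wells with under 100 cells, flagged as likely toxic; inactive = the rest.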 The sample as a whole holds a higher share of actives than the screen did. Measured potencies and affinities stand elsewhere.
Response enum: active, inactive

Observe how each entry below is paired with its result.
sampleSmiles: CCOC(=O)C(C)(C)N(Cc1ccc(Cl)cc1)S(=O)(=O)c1ccc(Cl)c([N+](=O)[O-])c1
target: G-protein coupled receptor 55 (Homo sapiens)
labelClass: inactive
--
sampleSmiles: COc1ccc(C)cc1NS(=O)(=O)c1cn(C)nc1C
target: G-protein coupled receptor 55 (Homo sapiens)
labelClass: inactive
--
sampleSmiles: Cc1ccc(C)c(NC(=O)c2ccccc2O)c1
target: G-protein coupled receptor 55 (Homo sapiens)
labelClass: inactive
--
sampleSmiles: CC(C)(C)c1ccc(C(=O)Nc2ccc(O)c3c(=O)cc(-c4ccccc4Cl)oc23)cc1
target: G-protein coupled receptor 55 (Homo sapiens)
labelClass: inactive

Exercise: Call for entry `CCOc1ccccc1NC(=O)NC1(C(=O)NCc2cccnc2)CCCCC1` :
Key: inactive

Exercise: Called result for `Cc1ccc(C)c(NC(=O)c2ccccc2C(=O)c2ccccc2)c1`
Key: active
